Measured Property: pKi
In plain terms, pKi is the concentration in mol/L turned into minus its base-10 logarithm.

(Q) Report value only: pKi, Nociceptin receptor (Homo sapiens, UniProt P41146), CN(C)[C@]1(c2ccccn2)C[C@H]2CC[C@@H](C1)N2C(c1ccccc1Cl)c1ccccc1Cl
(A) 7.38

(Q) Report value only: pKi, Nociceptin receptor (Homo sapiens, UniProt P41146), NC(=O)[C@]1(c2ccc(Br)nc2)C[C@H]2CC[C@@H](C1)N2C(c1ccccc1Cl)c1ccccc1Cl
(A) 7.89

(Q) Report value only: pKi, Nociceptin receptor (Homo sapiens, UniProt P41146), N[C@]1(c2ccc(F)cn2)C[C@H]2CC[C@@H](C1)N2C(c1ccccc1Cl)c1ccccc1Cl
(A) 8.15

(Q) Report value only: pKi, Nociceptin receptor (Homo sapiens, UniProt P41146), NC(=O)[C@]1(c2ccc(F)cn2)C[C@H]2CC[C@@H](C1)N2C(c1ccccc1Cl)c1ccccc1Cl
(A) 8.15

(Q) Report value only: pKi, Nociceptin receptor (Homo sapiens, UniProt P41146), NC(=O)C[C@]1(Cc2ccc(F)cc2)C[C@H]2CC[C@@H](C1)N2C(c1ccccc1Cl)c1ccccc1Cl
(A) 8.52

(Q) Report value only: pKi, Nociceptin receptor (Homo sapiens, UniProt P41146), COC(=O)N[C@]1(Cc2ccc(Cl)cc2)C[C@H]2CC[C@@H](C1)N2C(c1ccccc1Cl)c1ccccc1Cl
(A) 7.25

(Q) Report value only: pKi, Nociceptin receptor (Homo sapiens, UniProt P41146), NC(=O)[C@]1(c2ccc(C(F)(F)F)cn2)C[C@H]2CC[C@@H](C1)N2C(c1ccccc1Cl)c1ccccc1Cl
(A) 6.91

----------
- Species: Homo sapiens
- Procedure Summary: Selectivity for human cloned ORL1 receptor over human mu opioid receptor
Measured Property: fold change (FC)
Give only the figure.

(Q) Please indicate fold change (FC) recorded for NC(=O)[C@]1(c2ccc(N)cn2)C[C@H]2CC[C@@H](C1)N2C(c1ccccc1Cl)c1ccccc1Cl
(A) 4

(Q) Please indicate fold change (FC) recorded for NC(=O)[C@]1(c2ccc(Br)cn2)C[C@H]2CC[C@@H](C1)N2C(c1ccccc1Cl)c1ccccc1Cl
(A) 4

(Q) Please indicate fold change (FC) recorded for N#Cc1ccc([C@@]2(C(N)=O)C[C@H]3CC[C@@H](C2)N3C(c2ccccc2Cl)c2ccccc2Cl)nc1
(A) 4

(Q) Please indicate fold change (FC) recorded for NC(=O)c1ccc([C@@]2(C(N)=O)C[C@H]3CC[C@@H](C2)N3C(c2ccccc2Cl)c2ccccc2Cl)nc1
(A) 4

(Q) Please indicate fold change (FC) recorded for NC(=O)[C@]1(c2ccc(F)cn2)C[C@H]2CC[C@@H](C1)N2C(c1ccccc1Cl)c1ccccc1Cl
(A) 37

(Q) Please indicate fold change (FC) recorded for NC(=O)[C@]1(c2ccc(O)cn2)C[C@H]2CC[C@@H](C1)N2C(c1ccccc1Cl)c1ccccc1Cl
(A) 4

(Q) Please indicate fold change (FC) recorded for NC(=O)[C@]1(c2cccc(F)n2)C[C@H]2CC[C@@H](C1)N2C(c1ccccc1Cl)c1ccccc1Cl
(A) 35

(Q) Please indicate fold change (FC) recorded for COC(=O)N[C@]1(c2ccc(Cl)cn2)C[C@H]2CC[C@@H](C1)N2C(c1ccccc1Cl)c1ccccc1Cl
(A) 74

(Q) Please indicate fold change (FC) recorded for COC(=O)N[C@]1(c2ccccn2)C[C@H]2CC[C@@H](C1)N2C(c1ccccc1Cl)c1ccccc1Cl
(A) 74

(Q) Please indicate fold change (FC) recorded for NC(=O)[C@]1(c2ccncc2)C[C@H]2CC[C@@H](C1)N2C(c1ccccc1Cl)c1ccccc1Cl
(A) 20
